Target: T1, cynomolgus soluble urokinase plasminogen activator receptor (suPAR) (cynomolgus, UniProt Q9GK78 23-303, limits assumed)
T1 construct: Target antigen of the scFv off-rate screen; also called cynomolgus suPAR; cynomolgus uPAR
T1 sequence (Q9GK78 23-303 limits assumed): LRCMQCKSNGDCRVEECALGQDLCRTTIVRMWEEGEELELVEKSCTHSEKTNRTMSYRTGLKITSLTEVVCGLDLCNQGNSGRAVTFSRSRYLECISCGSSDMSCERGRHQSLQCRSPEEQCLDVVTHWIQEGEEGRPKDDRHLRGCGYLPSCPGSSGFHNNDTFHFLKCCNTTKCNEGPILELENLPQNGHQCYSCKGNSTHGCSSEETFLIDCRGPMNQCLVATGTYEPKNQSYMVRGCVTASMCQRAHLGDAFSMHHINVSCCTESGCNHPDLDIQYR
Test: BLI (Octet) off-rate screen of scFv clones
EXPERIMENTAL_ENDPOINT: koff (s⁻¹)
Give your result in s⁻¹ as a bare value.

Req: Consider the binder shown here: suPAR_DB06_E07 (scFv, V domains shown) VH: QVQLVQSGAEVKKPGASVKVSCKASGYTFTNYYLHWVRQAPGQGLEWMGWIDPHSGGTNYAQKFQGRVTMTRDTSTSTVYMELSSLRSEDTAVYYCASGYDVDWFVYWGQGTLVTVSS VL: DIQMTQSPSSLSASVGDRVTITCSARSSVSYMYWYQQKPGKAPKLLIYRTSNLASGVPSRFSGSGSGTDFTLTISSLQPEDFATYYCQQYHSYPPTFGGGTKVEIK What is its recorded koff?
Resp: 0.000388

Ref: patent US20250215104A1
